Entry source: patent US9932314B2

Experimental system: voltage-dependent T-type calcium channel subunit alpha-1G (Cav3.2) (Homo sapiens, UniProt O95180)
Sequence (O95180 whole entry): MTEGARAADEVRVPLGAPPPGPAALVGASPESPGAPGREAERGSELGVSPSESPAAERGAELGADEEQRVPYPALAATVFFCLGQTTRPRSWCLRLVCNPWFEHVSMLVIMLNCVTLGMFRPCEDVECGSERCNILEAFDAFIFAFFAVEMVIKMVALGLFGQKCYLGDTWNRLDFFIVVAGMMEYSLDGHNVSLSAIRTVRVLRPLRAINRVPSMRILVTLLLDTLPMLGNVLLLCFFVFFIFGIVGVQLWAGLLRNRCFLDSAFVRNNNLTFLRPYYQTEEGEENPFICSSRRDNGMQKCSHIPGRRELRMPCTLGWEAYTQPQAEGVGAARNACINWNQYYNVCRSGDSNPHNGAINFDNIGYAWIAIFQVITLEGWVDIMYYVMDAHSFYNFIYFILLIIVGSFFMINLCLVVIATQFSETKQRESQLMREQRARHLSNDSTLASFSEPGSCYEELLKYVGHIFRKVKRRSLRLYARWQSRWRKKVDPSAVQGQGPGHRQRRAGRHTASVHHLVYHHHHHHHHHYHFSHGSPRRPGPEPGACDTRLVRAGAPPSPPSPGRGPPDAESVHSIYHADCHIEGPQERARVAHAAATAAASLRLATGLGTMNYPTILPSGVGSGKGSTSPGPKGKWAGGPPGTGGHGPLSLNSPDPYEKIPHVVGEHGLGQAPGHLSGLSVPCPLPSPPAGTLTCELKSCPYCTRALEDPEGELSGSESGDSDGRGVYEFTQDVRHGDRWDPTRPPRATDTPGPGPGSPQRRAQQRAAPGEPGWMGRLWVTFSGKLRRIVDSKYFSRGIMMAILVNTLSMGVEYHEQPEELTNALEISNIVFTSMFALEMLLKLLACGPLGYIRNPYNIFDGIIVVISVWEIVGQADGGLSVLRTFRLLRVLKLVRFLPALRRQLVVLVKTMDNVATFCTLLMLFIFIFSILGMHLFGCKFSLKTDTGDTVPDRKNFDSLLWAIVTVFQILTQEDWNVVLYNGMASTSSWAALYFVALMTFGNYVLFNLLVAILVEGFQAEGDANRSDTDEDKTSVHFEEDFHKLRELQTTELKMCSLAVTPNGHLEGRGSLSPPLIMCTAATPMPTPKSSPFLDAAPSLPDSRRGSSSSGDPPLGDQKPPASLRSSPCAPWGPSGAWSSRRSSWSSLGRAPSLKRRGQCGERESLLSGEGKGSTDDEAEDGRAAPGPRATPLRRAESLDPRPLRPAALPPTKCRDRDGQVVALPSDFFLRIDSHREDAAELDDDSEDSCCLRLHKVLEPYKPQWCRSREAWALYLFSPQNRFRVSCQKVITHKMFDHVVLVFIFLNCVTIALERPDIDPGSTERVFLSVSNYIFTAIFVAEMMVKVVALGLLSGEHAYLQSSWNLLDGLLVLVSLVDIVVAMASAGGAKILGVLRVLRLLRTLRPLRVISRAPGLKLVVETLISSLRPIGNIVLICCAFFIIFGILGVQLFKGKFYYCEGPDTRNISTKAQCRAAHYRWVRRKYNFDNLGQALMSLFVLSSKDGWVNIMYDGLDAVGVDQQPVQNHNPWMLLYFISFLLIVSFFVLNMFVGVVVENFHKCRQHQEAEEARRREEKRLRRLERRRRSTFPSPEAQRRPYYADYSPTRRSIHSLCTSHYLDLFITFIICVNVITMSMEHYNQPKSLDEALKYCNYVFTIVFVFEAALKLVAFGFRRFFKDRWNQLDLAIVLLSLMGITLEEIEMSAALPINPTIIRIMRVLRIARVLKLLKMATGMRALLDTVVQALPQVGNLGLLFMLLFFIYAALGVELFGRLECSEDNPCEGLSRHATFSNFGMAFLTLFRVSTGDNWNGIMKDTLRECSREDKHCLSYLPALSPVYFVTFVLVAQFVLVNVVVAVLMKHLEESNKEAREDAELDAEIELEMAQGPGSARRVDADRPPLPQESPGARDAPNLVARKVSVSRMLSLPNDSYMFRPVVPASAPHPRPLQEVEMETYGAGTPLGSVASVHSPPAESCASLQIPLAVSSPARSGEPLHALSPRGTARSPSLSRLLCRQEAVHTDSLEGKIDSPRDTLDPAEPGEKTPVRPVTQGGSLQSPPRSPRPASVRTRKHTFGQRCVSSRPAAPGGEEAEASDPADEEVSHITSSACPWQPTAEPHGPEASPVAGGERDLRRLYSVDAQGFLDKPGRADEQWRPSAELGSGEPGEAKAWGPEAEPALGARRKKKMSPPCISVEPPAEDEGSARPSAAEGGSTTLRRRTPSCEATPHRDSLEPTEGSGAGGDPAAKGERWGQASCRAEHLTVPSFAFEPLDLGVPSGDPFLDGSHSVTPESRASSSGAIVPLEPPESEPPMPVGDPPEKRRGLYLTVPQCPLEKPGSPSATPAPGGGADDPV
Protocol notes: FLIPR calcium flux assay, HEK293 cells recombinantly expressing Cav3.2
Experimental context: Cav3.2-channel, Fluo-4-AM, 3 min incubation, stimulation with 10 mM CaCl2
Measured quantity: IC50 (nM)
The answer is to be given in nM; state only the numeric part.

What does the data say about its IC50? Entry: N#Cc1ccc(Cn2ccc(NC(=O)Cc3ccc(F)cc3OCC(F)(F)F)n2)nc1 [Example 333] 2790

What does the data say about its IC50? Entry: O=C(Cc1ccc(-c2cncnc2)cc1)Nc1ccn(Cc2ccc(F)cc2)n1 [Example 86] 140

What does the data say about its IC50? Entry: Cn1cnc2cc(CC(=O)Nc3ccn(Cc4ccc(F)c(F)c4)n3)ccc21 [Example 230] 255

What does the data say about its IC50? Entry: Cn1ncc2ccc(CC(=O)Nc3ccn(Cc4ccc(C#N)cc4)n3)cc21 [Example 295] 308

Next item in the queue.
What does the data say about its IC50? Entry: O=C(Cc1ccc(-c2ccncc2)cc1)Nc1ccn(Cc2ccc(F)cc2)n1 [Example 84] 18
